# Tested on: SD rats; further: test concentration or dose not given here
# ASSAY EXPLANATION: animal or person
# Format: in vivo, rat
# COND: rat, in vivo, iv
Hi there, I'd appreciate the recorded Sedation Duration for every entry that follows.
Answers are plain numbers, in min.

Query: // output Sedation Duration; input COC(=O)CN1CCN(Cc2cc(C(C)C)c(O)c([C@H](C)C3CC3)c2)CC1 ; system SD rats; further: test concentration or dose not given here
Response: 22.58

Query: Report value: Sedation Duration, system: SD rats, molecule: CCC(=O)N(c1cc(C(C)C)c(O)c([C@H](C)C2CC2)c1)N1CCN(CCC(=O)OC)CC1; further: test concentration or dose not given here
Response: 66.48

Query: Write down measured Sedation Duration (SD rats) for this molecule. CC(=O)N(c1ccccc1)C1CCN(c2cc(C(C)C)c(O)c(C(C)C)c2)CC1
Response: 55.12

Provide Sedation Duration for all items below, preserving their order.
1. CCOC(=O)C1(c2ccccc2F)CCN(c2cc(C(C)C)c(O)c(C(C)C)c2)CC1
2. CCOC(=O)C1(c2ccccn2)CCN(c2cc(C(C)C)c(O)c(C(C)C)c2)CC1.Cl
3. CCOC(=O)N(Cc1cccc(Cl)c1)N1CCN(c2cc(C(C)C)c(O)c(C(C)C)c2)CC1
4. CCOC(=O)N(c1cccc(OC)c1)N1CCN(c2cc(C(C)C)c(O)c([C@H](C)C3CC3)c2)CC1
5. CCOC(=O)C1(c2cccc(Cl)c2)CCN(c2cc(C(C)C)c(O)c(C(C)C)c2)CC1
6. C=C[C@@H](C)c1cc(N2CCN(CC(=O)OC)CC2)cc(C(C)C)c1O

Response:
1: 29.75; 2: 41.02; 3: 71.18; 4: 37.65; 5: 21.73; 6: 22.78

Give Sedation Duration for each listed item.
1. COC(=O)CN(C1CC1)C1CCN(c2cc(C(C)C)c(O)c(C(C)C)c2)CC1
2. COC(=O)CN1CCC(N(CC(=O)OC)c2cc(C(C)C)c(O)c([C@H](C)C3CC3)c2)CC1
3. CCOC(=O)N(Cc1ccoc1)N1CCN(c2cc(C(C)C)c(O)c(C(C)C)c2)CC1

Response:
1. 17.93
2. 19.32
3. 21.85

Respectfully, I request Sedation Duration for each entry included below.
1. CCOC(=O)N(c1ccc(OC)c(Br)c1)N1CCN(c2cc(C(C)C)c(O)c(C(C)C)c2)CC1
2. CC(C)OC(=O)N(c1ccccc1)C1CCN(c2cc(C(C)C)c(O)c(C(C)C)c2)CC1
3. CCC(=O)N(CC1CCN(c2cc(C(C)C)c(O)c(C(C)C)c2)CC1)c1ccccc1
4. CCOC(=O)C1(c2ccc(F)cc2F)CCN(c2cc(C(C)C)c(O)c(C(C)C)c2)CC1

Response:
107.67
29.90
19.68
67.40

* * *

Can you tell me Sedation Duration for the items I'm about to list?
# Tested on: SD rats; further: test concentration or dose not given here
# ASSAY EXPLANATION: animal or person
# Type: in vivo, rat
# COND: rat, in vivo, iv

Guide cases for Sedation Duration, answers given:
Query: Tell us which Sedation Duration value is on record for CC(C)C(=O)N(c1ccccc1)C1CCN(c2cc(C(C)C)c(O)c(C(C)C)c2)CC1
Response: 42.83 min

Query: Please indicate Sedation Duration recorded for CCOC(=O)C1(c2ccccc2)CCN(c2cc(C(C)C)c(O)c(C(C)C)c2)CC1
Response: 20.10 min

Turning now to a further molecule:
Query: Assign Sedation Duration to the following record: CCOC(=O)N(c1cccc(OC)c1)N1CCN(c2cc(C(C)C)c(O)c(C(C)C)c2)CC1
Response: 50.33 to 193.58 min
